# TARGET OR SYSTEM: BRD4 (Homo sapiens, UniProt O60885)
# EXPERIMENT NOTES: Differential Scanning Fluorimetry (DSF), increased stability of BRD4 upon ligand binding
# PROTOCOL CONDITIONS: Table 1; 100 μM protein, 4 μM compound and 2% DMSO
VALUE KIND: ΔTm at 4 µM (°C)
Quick note: give the figure in °C, leave out the unit.

Some solved cases for reference:
Cc1cnc(Nc2ccc(C3CCN(C)CC3)c(F)c2)nc1Nc1cccc(CS(=O)(=O)C(C)(C)C)c1 [SR3-167] = 9.2
Cc1cnc(Nc2ccc(C3CCN(C)CC3)c(F)c2)nc1Nc1ccc(Cl)c(CS(=O)(=O)C(C)(C)C)c1 [SR3-169] = 9.8
Cc1cnc(Nc2ccc(C(=O)NC3CCN(C)CC3)c(F)c2)nc1Nc1cccc(CS(=O)(=O)C(C)(C)C)c1 [SR3-162] = 6.9

Below: the item to evaluate.
Exercise: Query: ΔTm at 4 µM; subject: Cc1cnc(Nc2ccc(N3CCN(C)CC3)c(F)c2)nc1Nc1cccc(CS(=O)(=O)C(C)(C)C)c1 [SR3-159]
Solution: 8.4

###

# TARGET OR SYSTEM: JAK2 (Homo sapiens)
# Sequence (O60674 whole entry): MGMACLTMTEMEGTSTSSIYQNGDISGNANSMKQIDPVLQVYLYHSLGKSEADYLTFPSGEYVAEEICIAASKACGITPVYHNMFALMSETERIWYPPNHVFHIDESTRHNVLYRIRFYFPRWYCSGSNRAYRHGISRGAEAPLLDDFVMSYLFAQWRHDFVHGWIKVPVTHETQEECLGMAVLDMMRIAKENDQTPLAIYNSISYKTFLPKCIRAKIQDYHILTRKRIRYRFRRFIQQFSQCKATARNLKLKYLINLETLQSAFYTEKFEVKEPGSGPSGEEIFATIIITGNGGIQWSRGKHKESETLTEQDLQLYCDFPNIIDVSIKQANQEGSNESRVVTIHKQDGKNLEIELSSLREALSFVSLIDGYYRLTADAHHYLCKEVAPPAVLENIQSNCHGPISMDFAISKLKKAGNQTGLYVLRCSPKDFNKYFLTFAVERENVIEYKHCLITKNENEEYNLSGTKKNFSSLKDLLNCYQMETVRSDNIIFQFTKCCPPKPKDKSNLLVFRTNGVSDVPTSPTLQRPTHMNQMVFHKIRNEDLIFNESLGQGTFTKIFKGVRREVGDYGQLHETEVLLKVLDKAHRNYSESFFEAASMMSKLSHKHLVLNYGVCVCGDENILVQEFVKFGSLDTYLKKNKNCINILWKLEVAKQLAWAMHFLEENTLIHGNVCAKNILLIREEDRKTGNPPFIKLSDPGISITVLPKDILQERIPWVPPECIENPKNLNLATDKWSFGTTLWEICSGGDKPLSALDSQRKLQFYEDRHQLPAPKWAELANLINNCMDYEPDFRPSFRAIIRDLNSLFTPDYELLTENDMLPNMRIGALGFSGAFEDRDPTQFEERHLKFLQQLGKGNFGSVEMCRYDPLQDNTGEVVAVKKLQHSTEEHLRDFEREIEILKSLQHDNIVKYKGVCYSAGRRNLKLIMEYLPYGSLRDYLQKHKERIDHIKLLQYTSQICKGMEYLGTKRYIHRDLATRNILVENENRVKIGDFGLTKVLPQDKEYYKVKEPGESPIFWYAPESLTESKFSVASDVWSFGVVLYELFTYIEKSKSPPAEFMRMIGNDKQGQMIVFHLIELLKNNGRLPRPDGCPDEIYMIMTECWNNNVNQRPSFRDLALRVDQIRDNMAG
# EXPERIMENT NOTES: JAK2 inhibition (IC50)
# Format: biochemical
# PROTOCOL CONDITIONS: Table 1; unit given as nm; read-out: IC50 (JAK2)
VALUE KIND: pIC50
Lab note — pIC50 values are minus log10 of concentrations in M.

Exercise: Provide value of pIC50 for this record tested with JAK2 (Homo sapiens): `Cc1cnc(Nc2ccc(C3CCN(C)CC3)c(F)c2)nc1Nc1cccc(CS(=O)(=O)C(C)(C)C)c1`
Solution: 9.06

###

# TARGET OR SYSTEM: JAK2 (Homo sapiens)
# EXPERIMENT NOTES: JAK2 inhibition (IC50)
# Type: biochemical
# PROTOCOL CONDITIONS: Table 1; read-out: IC50 (JAK2)
VALUE KIND: IC50 (nM)
Form entry: value (nM) — number only.

Exercise: So what does the record say about IC50 for `Cc1cnc(Nc2ccc(N3CCN(C)CC3)c(F)c2)nc1Nc1cccc(CS(=O)(=O)C(C)(C)C)c1` ?
Solution: 9

###

# TARGET OR SYSTEM: BRD4 (Homo sapiens, UniProt O60885)
# EXPERIMENT NOTES: Differential Scanning Fluorimetry (DSF), increased stability of BRD4 upon ligand binding
# PROTOCOL CONDITIONS: Table 3
Given measured BRD4 DSF (ΔTm), output Y if it is greater than or equal to 7 °C and N if not.

Cc1cnc(Nc2ccc(C3CCN(C)CC3)c(F)c2)cc1Nc1cccc(CS(=O)(=O)C(C)(C)C)c1 [SY3-036] = N
Cc1cnc(Nc2ccc(C3CCN(C)CC3)cc2)cc1Nc1cccc(CS(=O)(=O)C(C)(C)C)c1 [SY3-032] = N
Cc1cnc(Nc2ccc(C3CCN(C)CC3)c(F)c2)nc1Nc1ccc2c(c1)C(S(=O)(=O)C(C)(C)C)CC2 (centres unmarked) [SR5-156] = Y

Exercise: Could you verify whether the entry Cc1cnc(Nc2ccc(N3CCN(C)CC3)c(F)c2)nc1Nc1cccc(CS(=O)(=O)C(C)(C)C)c1 [SR3-159] shows BRD4 DSF (ΔTm) of no less than 7 °C?
Solution: Y

Exercise: Is BRD4 DSF (ΔTm) for Cc1cnc(Nc2ccc(C3CCN(C)CC3)c(F)c2)nc1Nc1ccc(Cl)c(CS(=O)(=O)C(C)(C)C)c1 [SR3-169] at or above 7 °C?
Solution: Y

Exercise: Reported BRD4 DSF (ΔTm) reaches at least 7 °C for Cc1cnc(Nc2ccc(C3CCN(C)CC3)c(F)c2)nc1Nc1cccc(CS(=O)(=O)C(C)(C)C)c1 [SR3-167] ?
Solution: Y

###

IC50: recorded values
# TARGET OR SYSTEM: BRD4 (Homo sapiens, UniProt O60885)
# EXPERIMENT NOTES: BRD4 inhibition (IC50)
# Assay type: binding
# Design: BRD4-1
# PROTOCOL CONDITIONS: Table 1; estimated; read-out: Estimated BRD4-1 IC50 (BRD4)
Number only, in µM; omit the unit.

Cc1cnc(Nc2ccc(C3CCN(C)CC3)c(F)c2)nc1Nc1cccc(CS(=O)(=O)C(C)(C)C)c1 = 0.704

Next:
Exercise: # query: IC50 of entry `Cc1cnc(Nc2ccc(N3CCN(C)CC3)c(F)c2)nc1Nc1cccc(CS(=O)(=O)C(C)(C)C)c1`
Solution: 5.61

###

The following molecules are listed with their measured pIC50 values.
# TARGET OR SYSTEM: UniProtKB O60674
# EXPERIMENT NOTES: JAK2 inhibition (IC50)
# Assay type: biochemical
# PROTOCOL CONDITIONS: Table 3; read-out: JAK2 (IC50)
# pIC50 is unitless: minus log10 of the molar concentration; print number only

Look over these answered cases.
Cc1cnc(Nc2ccc(C(=O)NC3CCN(C)CC3)c(F)c2)nc1Nc1cccc(CS(=O)(=O)C(C)(C)C)c1 = 8.66
Cc1cnc(Nc2ccc(C3CCN(C)CC3)c(F)c2)nc1Nc1ccc(Cl)c(CS(=O)(=O)C(C)(C)C)c1 = 8.38
Cc1cnc(Nc2ccc(N3CCN(C)CC3)c(F)c2)nc1Nc1cccc(CS(=O)(=O)C(C)(C)C)c1 = 8.10

Now consider a different molecule.
Exercise: Any idea what pIC50 was measured for `Cc1cnc(Nc2ccc(C3CCN(C)CC3)c(F)c2)nc1Nc1cccc(CS(=O)(=O)C(C)(C)C)c1` ?
Solution: 9.00

Values compiled from patent US12187686B2.
